The entries below are paired with their reported Kd.
biological target: Biotinylated SARS-CoV-2 S protein RBD with a C-terminal AviTag (SARS-CoV-2, UniProt P0DTC2 319-541); experiment: BLI

| Binder | Value units | Kd |
| --- | --- | --- |
| NIH-CoVnb-103 (VHH) VHH: DVQLQESGGGLVQPGGSLRLSCAASGLTLDYYTIGWFRQAPGKEREGVSCISSSDDSTYYADSVKGRFTISRDNAKNTVYLQMNSLKPEDTAVYYCATAPGTYYKGSYYPMCHYYGMDYWGKGTQVTVSS | nM | 9.43 |
| NIH-CoVnb-113 (VHH) VHH: DVQLQESGGGLVQPGGSLRLSCAASGLTLDYYAIGWFRQAPGKEREGVSCISSSDGSTYYADSVKGRFTTSRDNAKNTVYLQMNSLKPEDTAVYYCAAVPSTYYSGTYYYTCHPGGMDYWGKGTLVTVSS | nM | 8.19 |
| NIH-CoVnb-108 (VHH) VHH: DVQLQESGGGLVQPGGSLRLSCAASGFTLDYYAIGWFRQAPGKEREGVSCISNSGGSTYYADSVKGRFTTSRDNAKNTVYLQMNSLKPEDTAVYYCAAVPSTYYSGSYYYTCHPGGMDYWGKGTQVTVSS | nM | 26.6 |
| NIH-CoVnb-109 (VHH) VHH: DVQLQESGGGLVQSGGSLRLSCAASGFTLDYYAIGWFRQAPGKEREGVSCITNSDGSTYYADSVKGRFTTSRDNAKNTVYLQMNSLKPEDTAVYYCASFPSTYYSGSYYYTCHPGGMDYWGKGTQVTVSS | nM | 58.5 |
